From: PubChem BioAssay (NCATS)

Kindly state activation for each of the entries shown.
- system: Cellular tumor antigen p53 (Homo sapiens) (UniProt P04637)
- Sequence (P04637 whole entry, looked up): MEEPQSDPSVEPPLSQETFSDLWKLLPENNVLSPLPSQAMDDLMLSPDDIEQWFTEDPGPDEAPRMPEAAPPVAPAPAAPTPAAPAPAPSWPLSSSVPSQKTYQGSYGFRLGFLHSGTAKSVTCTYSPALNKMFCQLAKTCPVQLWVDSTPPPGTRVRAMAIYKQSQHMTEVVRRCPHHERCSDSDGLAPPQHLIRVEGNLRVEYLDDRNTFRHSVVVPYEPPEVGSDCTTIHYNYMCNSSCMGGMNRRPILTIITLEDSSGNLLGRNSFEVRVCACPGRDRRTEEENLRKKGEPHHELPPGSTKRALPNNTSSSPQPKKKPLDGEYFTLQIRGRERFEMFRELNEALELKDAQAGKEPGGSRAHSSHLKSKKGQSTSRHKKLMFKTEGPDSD
- assay: Primary qHTS for small molecule compounds that upregulate eGFP-tagged delta133p53alpha (in N-terminal) cells. (AID 2060322);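 also: cells pre-induced with doxycycline then dosed without doxycycline; 0% = DMSO vehicle and 100% = reference activator; nearly all actives have a fitted effect of over 75% in size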
- study.conditions: NCI-H358 eGFP-delta133p53alpha fluorescence, 24 h; stronger effect = higher value
Records with an inconclusive call do not appear.
Number in %, nothing else.

What value of measured activation is listed for Cc1nc(C#Cc2ccnc(Cl)c2)c(C)n1-c1ccc(F)cc1 ?
-12.9

What value of measured activation is listed for O=C(COCC(=O)N1CCN(C(c2ccccc2)c2ccccc2)CC1)Nc1ccc(Cl)cc1C(=O)O ?
-25.3

What value of measured activation is listed for C=CC1(C)CC2CCC3C(C)(C(=O)O)CCCC3(C)C2=CC1=O (configuration not stated) ?
-16

What value of measured activation is listed for Nc1ncnc2c1ncn2[C@H]1O[C@@H](C(=O)N2CCN(CC(=O)Nc3cccc4c3CNC4=O)CC2)[C@H](O)[C@@H]1O ?
-24.3

What value of measured activation is listed for CCN(CCN(C)C)C(=O)CNCc1cc(C(N)=O)ccn1 ?
-3.67

What value of measured activation is listed for O=C(O)c1cnn(-c2nc3cc(OC(F)(F)F)c(Cl)cc3[nH]2)c1 ?
-9.67

What value of measured activation is listed for O=C(/C=C/c1ccc(O)cc1)O[C@H]1[C@@H]2C=CO[C@@H](O[C@@H]3O[C@H](CO)[C@@H](O)[C@H](O)[C@H]3O)[C@@H]2[C@@]2(CO)O[C@@H]12 ?
-7.63

---

- assay: BET inhibitor-based combinations targeting novel dependencies in MECOM-rearranged (r) AML: UCSD-AML1 cell line (AID 2202235); also: nearly all actives have a fitted effect of over 40% in size
- study.conditions: UCSD-AML1 AML cells viability, CellTiter-Glo, 48 h; series mostly up to 46 µM
Inconclusive results are not listed. Active and inactive are the calls of the source. Calls come from the whole dose curve; as a rule, active = well fitted inhibition curve with a large enough effect; inconclusive = small, poorly fitted or top-dose-only effect; inactive = no such curve, though single readings can be large or run the other way. Non-standard residues stand in square brackets, D forms with d. Residues, ends and D or L forms follow the SMILES beside them. *: point of attachment. Sta = CC(C)C[C@H](N)[C@@H](O)CC(=O)O; Isovaleryl = CC(C)CC(=O)*
Classes to choose from: YES = active, NO = inactive

Could you please tell me the result logged for c1cc(Nc2cc(C3CC3)[nH]n2)nc(Nc2ccc3nc[nH]c3c2)n1 in this assay?
YES

Could you please tell me the result logged for c1ccc(CNc2nc(N3CCOc4ccccc43)nc3c2CCCC3)cc1 in this assay?
NO

Could you please tell me the result logged for COc1cc([C@@H]2c3cc4c(cc3[C@H](O)[C@H]3COC(=O)[C@@H]23)OCO4)cc(OC)c1OC in this assay?
YES

Could you please tell me the result logged for CCCCC(F)(F)[C@@]1(O)CC[C@H]2[C@H](CC(=O)[C@@H]2CCCCCCC(=O)O)O1 in this assay?
NO

Could you please tell me the result logged for Cc1cccc(Nc2nc(-c3ccncc3)cs2)c1 in this assay?
NO

Could you please tell me the result logged for O=C(O)CCCc1c[nH]c2ccccc12 in this assay?
NO

Could you please tell me the result logged for COc1cc(OC2CCN(C)CC2)ccc1Nc1ncc2c(n1)n(C1CCCC1)c(=O)n2C in this assay?
YES

Could you please tell me the result logged for CCNC1(C(N)=O)CCN(c2ncnc3c2nc(-c2ccccc2Cl)n3-c2ccc(Cl)cc2)CC1 in this assay?
NO

Could you please tell me the result logged for O=C(c1ccc(NS(=O)(=O)c2cccc3cccnc23)cc1)N1CCN(CC2CC2)CC1 in this assay?
NO

Could you please tell me the result logged for Cn1cc(-c2ccc3ncc(Cc4ccc5ncccc5c4)n3n2)cn1 in this assay?
NO

Could you please tell me the result logged for CC(C)CC(=O)N[C@H](C(=O)N[C@H](C(=O)N[C@@H](CC(C)C)[C@@H](O)CC(=O)N[C@@H](C)C(=O)N[C@@H](CC(C)C)[C@@H](O)CC(=O)O)C(C)C)C(C)C (Isovaleryl-VV[Sta]A[Sta]-OH) in this assay?
NO

Could you please tell me the result logged for CC1Cc2ccccc2N1NC(=O)c1ccc(Cl)c(S(N)(=O)=O)c1 (stereo not drawn) in this assay?
NO

Could you please tell me the result logged for Cc1ccc(C(=O)Nc2ccc(S(=O)(=O)O)c3cc(S(=O)(=O)O)cc(S(=O)(=O)O)c23)cc1NC(=O)c1cccc(NC(=O)Nc2cccc(C(=O)Nc3cc(C(=O)Nc4ccc(S(=O)(=O)O)c5cc(S(=O)(=O)O)cc(S(=O)(=O)O)c45)ccc3C)c2)c1 in this assay?
NO

Could you please tell me the result logged for CC1CNc2c(cccc2S(=O)(=O)N[C@@H](CCCN=C(N)N)C(=O)N2CC[C@@H](C)C[C@@H]2C(=O)O)C1 (stereo partly drawn) in this assay?
NO

Could you please tell me the result logged for COC(=O)[C@H](Cc1ccccc1)NC(=O)[C@@H](N)CC(=O)O (H-Asp-Phe-OMe) in this assay?
NO

Could you please tell me the result logged for NC(=O)c1ccc2[nH]ccc2c1 in this assay?
NO

Could you please tell me the result logged for COc1ccc2c(c1)CC[C@@H](CN(C)CC(=O)O)[C@H]2c1ccccc1 in this assay?
NO

Could you please tell me the result logged for CC(C)c1cnn2c(NCc3ccccc3)cc(N[C@@H](CO)[C@H](O)CO)nc12 in this assay?
YES

---

- assay: BET inhibitor-based combinations targeting novel dependencies in MECOM-rearranged (r) AML: AML-191 cell line (AID 2202236; also: nearly all actives have a fitted effect of over 35% in size)
- study.conditions: AML-191 viability, CellTiter-Glo luminescence, 48 h; series mostly up to 46 µM
- Description: Ecotropic viral insertion site 1 (EVI1) is located on chromosome 3q26.2 as part of the MECOM (MDS and EVI1 complex) locus. […] A collection of 2480 mechanistically annotated dugs (MIPE v5.0) was used to screen four 3q26.2 rearranged AML cell lines and three non-3q26.2 rearranged AML cell lines. […] Cell viability was determined by luminescence based, Cell Titer Glo assay (Promega). […] Luminescence readings were taken using a Viewlux (PerkinElmer) with a 2 s exposure time per plate. […]
Records with an inconclusive call do not appear. Active and inactive are the calls of the source. Calls come from the whole dose curve; as a rule, active = well fitted inhibition curve with a large enough effect; inconclusive = small, poorly fitted or top-dose-only effect; inactive = flat fitted curve, though single readings scatter.
Classes to choose from: active, inactive

Could you please tell me the result logged for CC(=O)Nc1nc(C)c(-c2ccc(Cl)c(S(=O)(=O)NCCO)c2)s1 in this assay?
active

Could you please tell me the result logged for C=CC(=O)Nc1cccc(Oc2nc(Nc3ccc(N4CCN(C)CC4)cc3)ncc2Cl)c1 in this assay?
active

Could you please tell me the result logged for Cc1sc2c(c1C)C(c1ccc(Cl)cc1)=N[C@@H](CC(=O)Nc1ccc(OCCOCCOCCOCCNc3cccc4c3C(=O)N(C3CCC(=O)NC3=O)C4=O)cc1)c1nnc(C)n1-2 (some centres undefined) in this assay?
active

Could you please tell me the result logged for Cc1ccccc1-n1nc(-c2c(-c3ccc(F)cc3)nn3c2NC[C@@H](CO)C3)ccc1=O in this assay?
inactive

Could you please tell me the result logged for CC(=O)[C@]1(O)Cc2c(O)c3c(c(O)c2[C@@H](O[C@H]2C[C@H](N)[C@H](O)[C@H](C)O2)C1)C(=O)c1ccccc1C3=O in this assay?
active

Could you please tell me the result logged for CNc1nc(Nc2ccc(C(=O)N3CCOCC3)cc2OC)ncc1Cl in this assay?
inactive

Could you please tell me the result logged for O=C(O)CCn1c2c(c3ccccc31)C[C@H](NS(=O)(=O)c1ccc(F)cc1)CC2 in this assay?
inactive

Could you please tell me the result logged for COc1cc2c(Oc3ccc4[nH]c(C)cc4c3F)ncnc2cc1OCCCN1CCCC1 in this assay?
active

Could you please tell me the result logged for Cc1cc2c(cc1C1(c3ccc(C(=O)O)cn3)CC1)C(C)(C)CCC2(C)C in this assay?
inactive

Could you please tell me the result logged for OC(c1ccc(-c2ccc(CN3CCN(Cc4ccncc4)CC3)cc2)c(F)c1)(C(F)(F)F)C(F)(F)F in this assay?
active

Could you please tell me the result logged for CC#C[C@@H](CC(=O)O)c1ccc(OCc2cccc(-c3ccc(C(F)(F)F)cc3)c2)cc1 in this assay?
active

Could you please tell me the result logged for Clc1ccccc1CN1CCc2sccc2C1 in this assay?
inactive

Could you please tell me the result logged for CCC(C)N(C)C(=O)c1cc2ccccc2c(-c2ccccc2Cl)n1 (centres undefined) in this assay?
inactive

Could you please tell me the result logged for OC1CCC(Nc2ncc3nc(Nc4c(F)cc(F)cc4F)n([C@@H]4CCOC4)c3n2)CC1 (some centres undefined) in this assay?
active

---

- assay: BET inhibitor-based combinations targeting novel dependencies in MECOM-rearranged (r) AML: OCI-AML3 cell line (AID 2202232); also: nearly all actives have a fitted effect of over 35% in size
- study.conditions: CellTiter-Glo luminescence, 48 h; OCI-AML3 viability; series mostly up to 46 µM
Inconclusive results are not listed. Active and inactive are the calls of the source. Calls follow the shape of the dose curve; as a rule, active = well fitted inhibition curve with a large enough effect; inconclusive = small, poorly fitted or top-dose-only effect; inactive = no such curve, though single readings can be large or run the other way.
Classes to choose from: label 1 for active, label 0 for inactive

Could you please tell me the result logged for CCOc1cc2ncc(C#N)c(Nc3ccc(OCc4ccccn4)c(Cl)c3)c2cc1NC(=O)/C=C/CN(C)C in this assay?
label 1

Could you please tell me the result logged for CCCCNc1ncc(-c2ccc(CN3CCOCC3)cn2)c(NC2CCC(O)CC2)n1 (stereo not given) in this assay?
label 1

Could you please tell me the result logged for Cc1cc(Nc2nc(N[C@@H](C)c3ccc(F)cc3)c(C#N)cc2F)n[nH]1 in this assay?
label 1

Could you please tell me the result logged for CCOC(=O)[C@H]1O[C@@H]1C(=O)N[C@@H](CC(C)C)C(=O)NCCC(C)C in this assay?
label 1

Could you please tell me the result logged for Clc1ccc(C(c2ccccc2Cl)C(Cl)Cl)cc1 (stereo not given) in this assay?
label 0

Could you please tell me the result logged for COc1cc2c(cc1-c1c(C)noc1C)ncc1[nH]c(=O)n([C@H](C)c3ccccn3)c12 in this assay?
label 1

Could you please tell me the result logged for CC(=O)OC[C@@H]1O[C@@H](n2ccc(=O)[nH]c2=O)[C@H](OC(C)=O)[C@H]1OC(C)=O in this assay?
label 0

Could you please tell me the result logged for Cn1c(=O)n(-c2ccc(C(C)(C)C#N)cc2)c2c3cc(-c4cnc5ccccc5c4)ccc3ncc21 in this assay?
label 1

Could you please tell me the result logged for O=C(O)C(=O)Nc1cccc(-c2nn[nH]n2)c1 in this assay?
label 0

Could you please tell me the result logged for CC(C)c1ccc2c(c1)c(SC(C)(C)C)c(CC(C)(C)C(=O)O)n2Cc1ccc(Cl)cc1 in this assay?
label 1

Could you please tell me the result logged for CSc1cccc(Nc2ncc3cc(-c4c(Cl)cccc4Cl)c(=O)n(C)c3n2)c1 in this assay?
label 0

Could you please tell me the result logged for CNC(=O)c1ccccc1Nc1nc(Nc2ccc3c(c2OC)CCC[C@@H](N2CCN(CCO)CC2)C3)ncc1Cl in this assay?
label 0

Could you please tell me the result logged for CNCCCC12CCC(c3ccccc31)c1ccccc12 in this assay?
label 1

Could you please tell me the result logged for O=C(O)C1CCCN(CCC=C(c2ccccc2)c2ccccc2)C1 (stereo not given) in this assay?
label 0

Could you please tell me the result logged for O=C(Nc1ncc(-c2cc(C(F)F)nn2-c2c(Cl)cccc2Cl)s1)C1CC1 in this assay?
label 1
